Recorded measurements of pKd, one per entry
- Measurement target: biotinylated human DLL3 protein expressed as a human IgG1 fusion protein (human) (UniProt Q9NYJ7)
- Sequence (Q9NYJ7 27-492): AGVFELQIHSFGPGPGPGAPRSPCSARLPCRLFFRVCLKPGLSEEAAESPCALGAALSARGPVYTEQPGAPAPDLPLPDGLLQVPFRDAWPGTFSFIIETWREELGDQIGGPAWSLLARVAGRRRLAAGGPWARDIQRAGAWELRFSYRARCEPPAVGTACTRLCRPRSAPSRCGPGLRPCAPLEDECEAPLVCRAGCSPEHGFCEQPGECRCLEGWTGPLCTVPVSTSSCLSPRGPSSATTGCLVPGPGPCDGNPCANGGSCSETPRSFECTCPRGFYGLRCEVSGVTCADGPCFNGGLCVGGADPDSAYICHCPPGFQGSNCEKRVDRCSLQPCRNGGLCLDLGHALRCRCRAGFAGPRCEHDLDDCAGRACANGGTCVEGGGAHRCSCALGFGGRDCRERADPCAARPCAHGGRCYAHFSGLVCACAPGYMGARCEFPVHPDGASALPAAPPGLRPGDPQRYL
- Protocol description: Octet, biotinylated human DLL3-IgG1 fusion on streptavidin tips, single 50 nM, conditioned medium (relative KD)
Just the number, please; pKd means minus log10 of the concentration in mol/L.

These recorded examples may help you get a feel for the data.
Form field pKd, entry anti-DLL3 trispecific protein, DLL3 binder 2H08 (protein, part only; not given: anti-CD3 fragment and anti-albumin domain, part only) chain, part: EVQLVESGGGLVQPGGSLTLSCVASGSTSSINAMGWYRRAPGKQRELAAGISKDGSKVYADSAKGRFTISRDNAKNSVYLQMNSLRAEDTAVYYCYYFRTVSGSSSRYWGQGTLVTVSSGGGGSGGGSGGGGSGGGSHHHHHH : 7.74

Form field pKd, entry anti-DLL3 trispecific protein, DLL3 binder 2B011 (protein, part only; not given: CD3 binder and albumin binder, part only) chain, part: EVQLVESGGGLVQPGGSLTLSCVASGNTSSINAMGWYRRAPGKQRELVAGISSDGSRVYADSVKGRFTISRDNAKNSVYLQMNSLRAEDTAVYYCYYFRTVSGSSMRSWGQGTLVTVSSGGGGSGGGSGGGGSGGGSHHHHHH : 7.96

Form field pKd, entry anti-DLL3 trispecific protein, DLL3 binder 2A09 (protein, part only; not given: anti-CD3 and anti-albumin domains, part only) chain, part: EVQLVESGGGLVQPGGSLTLSCVASGSTSSRNAMGWYRRAPGKQRELVAGISSNGSKVYSDSVKGRFTISRDNAKNSVYLQMNSLRAEDTAVYYCYYFRTVSGSSMSYWGQGTLVTVSSGGGGSGGGSGGGGSGGGSHHHHHH : 8.00

Further cases:
Form field pKd, entry anti-DLL3 trispecific protein, DLL3 binder 4E01 (protein, part only; not given: anti-CD3 fragment and anti-albumin sdAb, part only) chain, part: EVQLVESGGGLVQPGGSLTLSCAASGSSVSFLSVAWYRQAPGKKRELVAGISRDGSTDYIDSVKGRFTISRDNAKNSVYLQMNSLRAEDTAVYYCYAYRWRTRYTYWGQGTLVTVSSGGGGSGGGSGGGGSGGGSHHHHHH : 7.96

Form field pKd, entry anti-DLL3 trispecific protein, DLL3 binder 1H08 (protein, part only; not given: CD3 binder and albumin binder, part only) chain, part: EVQLVESGGGLVQPGGSLTLSCVASGSTFSINAMGWYRRAPGKQRELVAGISSDGSKVLADSVKGRFTISRDNAKNSVYLQMNSLRAEDTAVYYCYYFRLVSGSSMRYWGQGTLVTVSSGGGGSGGGSGGGGSGGGSHHHHHH : 7.77
